Each entry below lists one item and its recorded T/C value.
test system: L1210 leukemia ip in BDF1 mice, survival T/C; assay: NCI In Vivo Anticancer Drug Screen. Data for tumor model L1210 Leukemia (intraperitoneal) in B6D2F1 (BDF1) mice; settings: endpoint: mean survival time; dose: 150.0 mg/kg/injection; schedule: Q01DX001 (ip); vehicle: carboxymethylcellulose (CMC); higher = longer survival
Inconclusive results and toxic doses are left out.

Solved entries:
# smi, experimental_target, T/C
measured = [
    ("CCOCc1cc(Cc2cc(COCC)c3cccnc3c2O)c(O)c2ncccc12", "L1210 leukemia ip in BDF1 mice, survival T/C", "105 % of control"),
    ("S=C(c1ccco1)N1CCOCC1", "L1210 leukemia ip in BDF1 mice, survival T/C", "104 % of control"),
    ("O=C(Nc1ccc(C(=O)Nc2cc(S(=O)(=O)O)cc3cccc(S(=O)(=O)O)c23)cc1)Nc1ccc(C(=O)Nc2cc(S(=O)(=O)O)cc3cccc(S(=O)(=O)O)c23)cc1", "L1210 leukemia ip in BDF1 mice, survival T/C", "105 % of control"),
]

get_value(item= `N#Cc1cnc(N)nc1N` , readout=T/C) returns 92 % of control

Provenance of the data: PubChem BioAssay AID248
